- Tested on: LTC4
- Experiment Notes: Antagonism in isolated guinea-pig trachea, Test method (i) (Table 3, given as LTC4 antagonism)
- Assay type: cell-based
- Test Parameters: Cavia porcellus, 5 min, test compound 10^-5 g/ml, given as LTC4 antagonisms
- Protocol: (i) LTC4 and LTD4 antagonisms in guinea-pig trachea Antagonisms for LTC4 and LTD4 were determined in isolated guinea-pig trachea prepared as spiral strip. Tracheal preparations were suspended under 1 g tension in 10 ml organ baths and they were incubated for 1 hr prior to use. […] LTC4 - and LTD4 -induced contractions were expressed as a percentage of the maximal response to histamine. The antagonism was determined as follows: […]
Classes are defined on inhibition at 10 µg/mL with ranges low (below 60%), medium (60% to below 80%), high (80% or more)

Compound: CCCc1cc(C#N)ccc1OCCCOc1cnn(CC)c(=O)c1Cl [compound 65]
Experimental Target: LTC4
Group: high

Compound: CCCc1c(OCCCOc2cnn(CC)c(=O)c2Cl)ccc2c(=O)cc(C(=O)OCC)oc12 [compound 25]
Experimental Target: LTC4
Group: low

Compound: CCOC(=O)c1ccc(OCCCOc2cnn(C(C)(C)C)c(=O)c2Cl)c(Cl)c1 [compound 32]
Experimental Target: LTC4
Group: low

Compound: CCCc1cc(C(=O)OC)ccc1OCCCNc1cnn(CC)c(=O)c1Br [compound 118]
Experimental Target: LTC4
Group: high

Compound: CCCc1c(OCCCOc2cnn(CC)c(=O)c2Cl)ccc2c(=O)cc(C(=O)O)oc12 [compound 29]
Experimental Target: LTC4
Group: low

Compound: Cc1ccccc1OCCCNc1cnn(C(C)C)c(=O)c1Cl [compound 72]
Experimental Target: LTC4
Group: high

Compound: CCCCc1cc(C(=O)O)ccc1OCCCNc1cnn(C(C)C)c(=O)c1Cl [Compound No. 112]
Experimental Target: LTC4
Group: high

Compound: CCCc1cc(C(=O)OC)ccc1OCCCNc1cnn(CC)c(=O)c1Cl [Compound No. 6]
Experimental Target: LTC4
Group: high

Compound: COc1ccc(CCNc2cnn(C(C)(C)C)c(=O)c2Cl)cc1OC [Compound No. 16]
Experimental Target: LTC4
Group: low

Compound: COC(=O)CCC(=O)c1ccc(OCCCN(C)c2cnn(C(C)C)c(=O)c2Cl)cc1 [compound 77]
Experimental Target: LTC4
Group: low

Compound: COC(=O)CCC(=O)c1ccc(OCCCNc2cnn(C(C)C)c(=O)c2Cl)cc1 [compound 76]
Experimental Target: LTC4
Group: low

Compound: CCn1ncc(NCCCOc2ccc(OC)cc2)c(Cl)c1=O [compound 56]
Experimental Target: LTC4
Group: medium

Compound: CCCc1cc(C(=O)OC)ccc1OCCCNc1cnn(C(C)C)c(=O)c1Cl [Compound No. 44]
Experimental Target: LTC4
Group: high

Compound: CCCc1cc(C#N)ccc1OCC(O)COc1cnn(C(C)C)c(=O)c1Cl (stereo not drawn) [Compound No. 171]
Experimental Target: LTC4
Group: medium

Compound: COc1cccc(OCCCOc2cnn(C(C)(C)C)c(=O)c2Cl)c1 [compound 27]
Experimental Target: LTC4
Group: medium

Recorded values, source patent US4783462A.
